Molecular target: Glucocorticoid receptor (Homo sapiens, UniProt P04150)
Assay: Displacement of [3H]dexamethasone from human Glucocorticoid receptor (GR); Value ranges from 159-161 nM
endpoint_name: IC50 (nM)
Answers are plain numbers, in nM.

Please give the measured IC50 for this molecule: CCC(=O)Nc1ccc2c(c1)C(c1ccccc1)Oc1cccc(OC)c1-2 (stereo unspecified)
160

* * *

Target: UniProt P04150
Experiment: Displacement of [3H]dexamethasone from human Glucocorticoid receptor (GR); Value ranges from 28-34 nM
endpoint_name: IC50 (nM)
Numbers only, in nM.

Please give the measured IC50 for this compound: CCOC(=O)c1cccc(C2Oc3cccc(OC)c3-c3ccc(NS(C)(=O)=O)cc32)c1 (stereo unspecified)
31

* * *

Provide the reported IC50 of each item.
Target: Estrogen receptor (Homo sapiens)
Sequence (P03372 whole entry): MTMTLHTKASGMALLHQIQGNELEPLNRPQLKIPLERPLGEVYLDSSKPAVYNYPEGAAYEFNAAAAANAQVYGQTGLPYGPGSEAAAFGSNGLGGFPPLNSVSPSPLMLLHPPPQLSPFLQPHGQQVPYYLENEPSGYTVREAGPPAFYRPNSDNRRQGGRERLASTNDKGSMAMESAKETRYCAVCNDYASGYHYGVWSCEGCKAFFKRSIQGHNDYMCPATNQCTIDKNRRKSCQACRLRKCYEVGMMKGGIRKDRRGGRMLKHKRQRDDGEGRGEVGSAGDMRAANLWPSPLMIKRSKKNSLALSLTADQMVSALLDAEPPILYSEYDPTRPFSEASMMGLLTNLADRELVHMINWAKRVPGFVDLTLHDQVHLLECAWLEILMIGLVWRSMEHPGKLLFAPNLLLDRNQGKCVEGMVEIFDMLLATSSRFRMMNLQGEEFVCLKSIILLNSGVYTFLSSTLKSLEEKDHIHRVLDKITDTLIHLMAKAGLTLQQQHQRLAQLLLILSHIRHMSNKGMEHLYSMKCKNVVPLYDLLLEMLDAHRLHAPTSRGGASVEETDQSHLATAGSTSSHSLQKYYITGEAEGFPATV

// below: answered compounds
> print(dat)
                                   compound   result
1  COc1cccc2c1-c1ccc(NS(C)(=O)=O)cc1C(c1cccc(Cl)c1)O2 (stereo not drawn)  > 10 µM
2  COc1cccc2c1-c1ccc(NS(C)(=O)=O)cc1C(c1ccc(C)cc1)O2 (stereo not drawn)  > 10 µM

Lab note: next compound to report on.
Please give the measured IC50 for this compound: COc1cccc2c1-c1ccc(NS(C)(=O)=O)cc1C(c1cccs1)O2 (stereo not drawn)
> 10 µM

* * *

Molecular target: UniProt:P04150
Assay: Displacement of [3H]dexamethasone from human Glucocorticoid receptor (GR); Value ranges from 5-6 nM
endpoint_name: IC50 (nM)
Numbers only, in nM.

Write down the reported IC50 of COc1cccc(C2Oc3cccc(OC)c3-c3ccc(NS(C)(=O)=O)cc32)c1 (stereo unspecified) , test system: UniProt:P04150.
6

* * *

Molecular target: Glucocorticoid receptor (Homo sapiens)
Sequence (P04150 whole entry): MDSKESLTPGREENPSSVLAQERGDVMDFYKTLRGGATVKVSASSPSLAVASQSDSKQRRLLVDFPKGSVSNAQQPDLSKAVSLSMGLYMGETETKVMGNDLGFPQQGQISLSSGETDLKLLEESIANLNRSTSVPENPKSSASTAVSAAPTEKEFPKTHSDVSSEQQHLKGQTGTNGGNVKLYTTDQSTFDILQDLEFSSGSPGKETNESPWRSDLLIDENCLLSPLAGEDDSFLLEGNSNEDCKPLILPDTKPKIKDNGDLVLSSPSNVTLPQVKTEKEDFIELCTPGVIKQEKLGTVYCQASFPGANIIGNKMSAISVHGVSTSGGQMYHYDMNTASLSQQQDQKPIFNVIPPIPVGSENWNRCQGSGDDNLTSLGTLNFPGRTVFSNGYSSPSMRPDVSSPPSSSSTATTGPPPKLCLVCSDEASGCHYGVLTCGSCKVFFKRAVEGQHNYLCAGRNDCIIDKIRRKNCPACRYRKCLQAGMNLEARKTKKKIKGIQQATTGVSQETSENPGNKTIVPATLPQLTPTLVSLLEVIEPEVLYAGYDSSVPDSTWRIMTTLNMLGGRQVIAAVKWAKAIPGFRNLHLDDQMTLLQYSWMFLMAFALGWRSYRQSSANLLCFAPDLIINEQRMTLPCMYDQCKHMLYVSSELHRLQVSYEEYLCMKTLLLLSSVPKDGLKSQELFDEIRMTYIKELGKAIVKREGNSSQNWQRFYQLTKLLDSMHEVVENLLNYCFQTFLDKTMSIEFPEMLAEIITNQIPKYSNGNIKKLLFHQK
Assay: Effect on functional cellular GR-antagonism (GRAF) in human Glucocorticoid receptor (GR) expressing cells
endpoint_name: pIC50
Answers are plain numbers, as −log10 of the molar value.

Please give the measured pIC50 for this molecule: CS(=O)(=O)Nc1ccc2c(c1)C(c1ccccc1)Oc1cccc(O)c1-2 (stereo unspecified)
5.74

* * *

Target: Glucocorticoid receptor (Homo sapiens, UniProt P04150)
Assay: Displacement of [3H]dexamethasone from human Glucocorticoid receptor (GR); Value ranges from 379-840 nM
endpoint_name: IC50 (nM)
Give bare numbers, in nM.

Please give the measured IC50 for this compound: CCNc1ccc2c(c1)C(c1ccccc1)Oc1cccc(OC)c1-2 (stereo unspecified)
564

* * *

Target: Glucocorticoid receptor (Homo sapiens)
Sequence (P04150 whole entry): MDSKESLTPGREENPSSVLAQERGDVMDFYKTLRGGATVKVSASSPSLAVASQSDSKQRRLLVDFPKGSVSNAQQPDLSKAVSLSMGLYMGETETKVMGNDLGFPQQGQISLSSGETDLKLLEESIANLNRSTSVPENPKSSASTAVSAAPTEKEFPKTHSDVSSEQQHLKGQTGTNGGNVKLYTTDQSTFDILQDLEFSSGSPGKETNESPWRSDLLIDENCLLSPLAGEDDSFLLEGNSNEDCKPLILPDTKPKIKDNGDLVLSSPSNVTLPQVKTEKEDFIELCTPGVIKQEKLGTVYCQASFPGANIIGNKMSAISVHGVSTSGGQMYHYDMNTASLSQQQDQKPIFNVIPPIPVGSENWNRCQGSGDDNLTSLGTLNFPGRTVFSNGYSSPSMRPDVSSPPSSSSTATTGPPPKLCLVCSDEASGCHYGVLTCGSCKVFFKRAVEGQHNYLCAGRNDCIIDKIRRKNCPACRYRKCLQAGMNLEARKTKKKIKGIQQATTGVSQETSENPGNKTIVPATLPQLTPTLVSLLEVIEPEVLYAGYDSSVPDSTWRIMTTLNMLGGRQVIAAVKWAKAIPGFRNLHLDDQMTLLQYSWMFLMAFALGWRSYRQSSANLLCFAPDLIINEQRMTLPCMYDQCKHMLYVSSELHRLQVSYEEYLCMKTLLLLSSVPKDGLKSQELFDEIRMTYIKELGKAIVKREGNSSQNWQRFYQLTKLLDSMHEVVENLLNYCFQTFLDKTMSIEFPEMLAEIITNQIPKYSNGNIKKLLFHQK
Experiment: Displacement of [3H]dexamethasone from human Glucocorticoid receptor (GR); Value ranges from 44-53 nM
endpoint_name: IC50 (µM)
Give bare numbers, in µM.

Please give the measured IC50 for this molecule: COc1cccc2c1-c1ccc(NS(C)(=O)=O)cc1C(c1cccc(Oc3ccccc3)c1)O2 (stereo unspecified)
0.048

* * *

Biological target: Glucocorticoid receptor (Homo sapiens, UniProt P04150)
Sequence (P04150 whole entry): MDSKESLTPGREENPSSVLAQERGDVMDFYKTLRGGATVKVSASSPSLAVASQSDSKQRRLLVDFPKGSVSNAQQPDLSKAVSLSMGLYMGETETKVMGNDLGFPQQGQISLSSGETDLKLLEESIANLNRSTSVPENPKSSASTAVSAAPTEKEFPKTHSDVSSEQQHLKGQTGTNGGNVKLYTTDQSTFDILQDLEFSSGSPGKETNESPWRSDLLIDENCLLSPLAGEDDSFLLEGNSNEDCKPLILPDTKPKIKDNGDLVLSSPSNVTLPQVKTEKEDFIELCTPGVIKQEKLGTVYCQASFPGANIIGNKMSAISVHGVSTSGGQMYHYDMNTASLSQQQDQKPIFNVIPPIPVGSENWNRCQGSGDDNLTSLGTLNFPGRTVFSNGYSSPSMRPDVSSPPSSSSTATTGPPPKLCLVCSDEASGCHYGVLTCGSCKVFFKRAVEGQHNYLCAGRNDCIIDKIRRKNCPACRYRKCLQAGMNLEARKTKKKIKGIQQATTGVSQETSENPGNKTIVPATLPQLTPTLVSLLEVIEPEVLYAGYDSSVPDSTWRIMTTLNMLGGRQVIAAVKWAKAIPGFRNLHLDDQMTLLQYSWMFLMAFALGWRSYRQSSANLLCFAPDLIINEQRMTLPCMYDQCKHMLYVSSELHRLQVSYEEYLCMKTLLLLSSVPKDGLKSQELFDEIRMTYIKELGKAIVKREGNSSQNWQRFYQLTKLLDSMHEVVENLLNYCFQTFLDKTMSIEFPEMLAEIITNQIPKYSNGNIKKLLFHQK
Test: Displacement of [3H]dexamethasone from human Glucocorticoid receptor (GR); Value ranges from 70-92 nM
endpoint_name: pIC50
Answers are plain numbers, as −log10 of the molar value.

Please give the measured pIC50 for this compound: CCOc1cccc2c1-c1ccc(NS(C)(=O)=O)cc1C(c1ccccc1)O2 (stereo unspecified)
7.09

* * *

Molecular target: Glucocorticoid receptor (Homo sapiens, UniProt P04150)
Experiment: Displacement of [3H]dexamethasone from human Glucocorticoid receptor (GR); Value ranges from 150-220 nM
endpoint_name: IC50 (nM)
Numbers only, in nM.

Please give the measured IC50 for this molecule: CS(=O)(=O)Nc1ccc2c(c1)C(c1ccccc1)Oc1cccc(CO)c1-2 (stereo unspecified)
180

* * *

Target: Glucocorticoid receptor (Homo sapiens)
Experiment: Displacement of [3H]dexamethasone from human Glucocorticoid receptor (GR); Value ranges from 6-7 nM
endpoint_name: IC50 (nM)
Answers are plain numbers, in nM.

Please give the measured IC50 for this molecule: COc1cccc2c1-c1ccc(NS(C)(=O)=O)cc1C(c1ccc(C)cc1)O2 (stereo unspecified)
7

* * *

Molecular target: Glucocorticoid receptor (Homo sapiens)
Test: Displacement of [3H]dexamethasone from human Glucocorticoid receptor (GR); Value ranges from 1273-2947 nM
endpoint_name: pIC50
Numbers only, as −log10 of the molar value.

Please give the measured pIC50 for this molecule: COc1cccc2c1-c1ccc(N)cc1C(c1ccccc1)O2 (stereo unspecified)
5.71
